# Test system: MOLT-4 leukemia
# PROCEDURE_TEXT: NCI tumour cell line growth inhibition, 48 h
Consider the following compounds; for each one, report its TGI.

The observed TGI for CC1=C2CC[C@@]3(C)C(=CCC3O)C2(C)CCC1=O (some centres not stated) when tested with MOLT-4 leukemia stands at > 100 µM

The observed TGI for N#Cc1ccc(C2OCC3CC=CCC3CO2)cc1 (configuration not stated) when tested with MOLT-4 leukemia stands at > 100 µM

The observed TGI for CCOC(=O)/C(C1=NCCN1C)=C(\O)c1ccccc1 when tested with MOLT-4 leukemia stands at > 100 µM

The observed TGI for Cc1cc2c(cc1Cl)SC(NNCCO)=NS2(=O)=O when tested with MOLT-4 leukemia stands at > 100 µM

The observed TGI for NC(=O)c1c[nH]c2ncnc(N)c12 when tested with MOLT-4 leukemia stands at > 100 µM

The observed TGI for CNC(=O)/C=C/C1=CN2C(=O)c3ccc(C)c(O)c3NC(OC)C2C1 (configuration not stated) when tested with MOLT-4 leukemia stands at > 8.39 µM

The observed TGI for Cn1c2ncccc2n2c(=O)cc(O)cc12 when tested with MOLT-4 leukemia stands at 60.1 µM

The observed TGI for OC1C2CCCCN2C[C@@H](O)[C@H]1O (some centres not stated) when tested with MOLT-4 leukemia stands at > 100 µM

The observed TGI for O=C1CSC(c2ccccc2)N1c1ccc(-c2ccc(-n3c(-c4ccccc4)nc4ccccc4c3=O)cc2)cc1 (configuration not stated) when tested with MOLT-4 leukemia stands at > 100 µM

The observed TGI for O=C1CCc2cc(Br)ccc2O1 when tested with MOLT-4 leukemia stands at > 100 µM

The observed TGI for C[n+]1cccc(NC(=O)c2ccc3ccc4ccc(C(=O)Nc5ccc[n+](C)c5)nc4c3n2)c1 when tested with MOLT-4 leukemia stands at > 100 µM

The observed TGI for C=C(C(=O)c1ccccc1)C(NC(C)(C)C)c1ccccc1 (configuration not stated) when tested with MOLT-4 leukemia stands at 21.9 µM

Data provenance: PubChem BioAssay (NCI)
